- tested_on: recombinant thioredoxin reductase 1 (TrxR1) (Homo sapiens (Human), UniProt Q16881)
- Sequence (Q16881 151-649): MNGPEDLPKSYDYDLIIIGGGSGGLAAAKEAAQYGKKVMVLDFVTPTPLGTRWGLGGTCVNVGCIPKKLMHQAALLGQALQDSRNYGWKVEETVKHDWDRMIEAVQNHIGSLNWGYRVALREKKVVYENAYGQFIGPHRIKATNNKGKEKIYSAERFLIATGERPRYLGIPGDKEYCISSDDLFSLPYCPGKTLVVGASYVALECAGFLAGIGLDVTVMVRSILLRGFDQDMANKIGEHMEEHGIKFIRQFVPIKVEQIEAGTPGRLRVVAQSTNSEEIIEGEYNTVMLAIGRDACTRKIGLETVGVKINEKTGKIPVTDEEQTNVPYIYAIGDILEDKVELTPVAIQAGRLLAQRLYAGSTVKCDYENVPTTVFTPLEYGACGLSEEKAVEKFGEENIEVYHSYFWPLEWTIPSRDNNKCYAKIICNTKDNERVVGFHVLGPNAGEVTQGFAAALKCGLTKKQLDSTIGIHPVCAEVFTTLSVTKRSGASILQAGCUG
- assay_remarks: Inhibition of recombinant TrxR1 (DTNB assay)
- condition_label: 30 nM TrxR1, 250 μM NADPH, 15 minutes incubation, read-out: TrxR Assay IC50
value_kind: IC50 (nM)
Answers are plain numbers, in nM.

Recorded IC50, per entry:
compound="CN(C)c1ccc([N+](=O)[O-])c(S(=O)(=O)C2CCCC2)n1 [Example 8]" display_unit=nM measured_number=188
compound="COc1ccc([N+](=O)[O-])c(S(=O)(=O)CCc2ccccc2)n1 [Example 26]" display_unit=nM measured_number=18.8
compound="COc1ccc([N+](=O)[O-])c(S(=O)(=O)CCNC(C)=O)n1 [Example 15]" display_unit=nM measured_number=122

Q. Provide IC50, tested on recombinant thioredoxin reductase 1 (TrxR1) (Homo sapiens (Human), UniProt Q16881), for COc1ccc([N+](=O)[O-])c(S(=O)(=O)Cc2ccco2)n1 [Example 29] .
A. 6.78

* * *

- tested_on: recombinant thioredoxin reductase 1 (TrxR1) (Homo sapiens (Human))
- assay_remarks: Inhibition of recombinant TrxR1 (DTNB assay)
- condition_label: 30 nM TrxR1, 250 μM NADPH, 15 minutes incubation, read-out: TrxR Assay IC50
value_kind: pIC50
One number for each entry, as −log10 of the molar value.

substance_smiles=CCCCCCS(=O)(=O)c1nc(Cl)ccc1[N+](=O)[O-] tested_on="recombinant thioredoxin reductase 1 (TrxR1) (Homo sapiens (Human))" measured_number=7.25
substance_smiles=COc1ccc([N+](=O)[O-])c(S(=O)(=O)CCOc2ccccc2)n1 tested_on="recombinant thioredoxin reductase 1 (TrxR1) (Homo sapiens (Human))" measured_number=7.69
substance_smiles=CCS(=O)(=O)c1nc(OC)ccc1[N+](=O)[O-] tested_on="recombinant thioredoxin reductase 1 (TrxR1) (Homo sapiens (Human))" measured_number=6.91

Give me pIC50 for each of these compounds, listed below.
1. COc1ccc([N+](=O)[O-])c(S(=O)(=O)Cc2ccc(OC(F)(F)F)cc2)n1
2. COc1ccc([N+](=O)[O-])c(S(=O)(=O)CCN2CCCCC2)n1
3. COc1ccc([N+](=O)[O-])c(S(=O)(=O)Cc2ccc(F)cc2)n1
4. COc1ccc([N+](=O)[O-])c(S(=O)(=O)CCCO)n1
5. COc1ccc([N+](=O)[O-])c(S(=O)(=O)Cc2ccc(C)cc2)n1
6. COc1ccc([N+](=O)[O-])c(S(=O)(=O)Cc2ccccc2Cl)n1

A.
1. 8.99
2. 8.82
3. 8.30
4. 6.99
5. 7.84
6. 8.12

* * *

- tested_on: gluthathione reductase (GR) (Homo sapiens (Human), UniProt P00390)
- Sequence (P00390 44-522): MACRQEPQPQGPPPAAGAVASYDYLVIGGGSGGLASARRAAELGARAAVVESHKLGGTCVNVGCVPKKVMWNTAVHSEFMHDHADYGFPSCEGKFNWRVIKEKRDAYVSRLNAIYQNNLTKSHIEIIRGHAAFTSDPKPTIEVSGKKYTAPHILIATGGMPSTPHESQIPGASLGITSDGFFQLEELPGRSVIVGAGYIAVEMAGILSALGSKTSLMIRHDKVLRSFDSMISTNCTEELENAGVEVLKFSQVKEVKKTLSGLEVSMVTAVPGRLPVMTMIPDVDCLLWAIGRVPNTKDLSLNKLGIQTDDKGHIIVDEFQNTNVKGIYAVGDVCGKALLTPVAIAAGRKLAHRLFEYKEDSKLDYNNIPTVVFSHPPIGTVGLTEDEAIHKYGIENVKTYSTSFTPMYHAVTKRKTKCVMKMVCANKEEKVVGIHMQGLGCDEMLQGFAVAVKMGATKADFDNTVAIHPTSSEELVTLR
- assay_remarks: Inhibition of recombinant GR (GSSG assay)
- condition_label: 2 nM GR, 250 μM NADPH, 15 minutes incubation
value_kind: IC50

Recorded IC50, per entry:
molecule=O=[N+]([O-])c1ccc(Cl)nc1S(=O)(=O)Cc1ccccc1 value_kind=IC50 result="18.1 µM"
molecule=COc1ccc([N+](=O)[O-])c(S(=O)(=O)CCNC(C)=O)n1 value_kind=IC50 result="> 100 µM"
molecule=COc1ccc([N+](=O)[O-])c(S(=O)(=O)C(C)C)n1 value_kind=IC50 result="> 100 µM"

Give me IC50 for each of these molecules, listed below.
1. CCCCCCS(=O)(=O)c1nc(OC)ccc1[N+](=O)[O-]
2. CN(C)c1ccc([N+](=O)[O-])c(S(=O)(=O)C2CCCC2)n1
3. COc1ccc([N+](=O)[O-])c(S(=O)(=O)Cc2ccco2)n1
4. COc1ccc([N+](=O)[O-])c(S(=O)(=O)CCCCC(F)(F)F)n1
5. COc1ccc(CS(=O)(=O)c2nc(OC)ccc2[N+](=O)[O-])cc1
6. COc1ccc([N+](=O)[O-])c(S(=O)(=O)Cc2ccc(F)cc2)n1
7. CCCCCCS(=O)(=O)c1nc(Cl)ccc1[N+](=O)[O-]
8. COc1ccc([N+](=O)[O-])c(S(=O)(=O)Cc2ccc(C)cc2)n1

A.
["> 100 µM", "> 100 µM", "> 100 µM", "> 100 µM", "> 100 µM", "> 100 µM", "8.76 µM", "> 100 µM"]

Give me IC50 for each of these molecules, listed below.
1. CC[S+]([O-])c1nc(OC)ccc1[N+](=O)[O-] (stereo not shown)
2. O=[N+]([O-])c1ccc(Cl)nc1S(=O)(=O)C1CCCC1
3. COC(=O)CCS(=O)(=O)c1nc(OC)ccc1[N+](=O)[O-]
4. COc1ccc([N+](=O)[O-])c(S(=O)(=O)CCOc2ccccc2)n1
5. COc1ccc([N+](=O)[O-])c(S(=O)(=O)Cc2ccc(Cl)cc2)n1

A.
["> 100 µM", "60.5 µM", "> 100 µM", "> 100 µM", "> 100 µM"]

Give me IC50 for each of these molecules, listed below.
1. CCCCCCCCS(=O)(=O)c1nc(OC)ccc1[N+](=O)[O-]
2. COc1ccc([N+](=O)[O-])c(S(=O)(=O)CCCc2ccccc2)n1
3. COc1ccc([N+](=O)[O-])c(S(=O)(=O)Cc2cccc(Cl)c2)n1

A.
1. > 100 µM
2. > 100 µM
3. > 100 µM

* * *

- tested_on: recombinant thioredoxin reductase 1 (TrxR1) (Homo sapiens (Human))
- assay_remarks: Inhibition of recombinant TrxR1 (DTNB assay)
- condition_label: 30 nM TrxR1, 250 μM NADPH, 15 minutes incubation, read-out: TrxR Assay IC50
pIC50: −log10 of the molar value.
Classify by measured pIC50: Yes if it is equal to or exceeds 7, No if it is smaller.

compound="CCCCCCCC[S+]([O-])c1nc(OC)ccc1[N+](=O)[O-] (centres unmarked)" assigned_class=No
compound=COc1ccc([N+](=O)[O-])c(S(=O)(=O)CCCc2ccccc2)n1 assigned_class=Yes

Q. Reported pIC50 at or above 7? CCCCCCS(=O)(=O)c1nc(N(C)C)ccc1[N+](=O)[O-]
A. No

* * *

- tested_on: recombinant thioredoxin reductase 1 (TrxR1) (Homo sapiens (Human))
- assay_remarks: Inhibition of recombinant TrxR1 (DTNB assay)
- Format: biochemical
- condition_label: 30 nM TrxR1, 250 μM NADPH, 15 minutes incubation, read-out: TrxR Assay IC50
value_kind: IC50
Reply with the number and its unit after it.

Recorded IC50, per entry:
compound="O=[N+]([O-])c1ccc(Cl)nc1S(=O)(=O)C1CCCC1 [Example 5]" value_kind=IC50 result="181 nM"
compound="COc1ccc([N+](=O)[O-])c(S(=O)(=O)CCc2cnccn2)n1 [Example 30]" value_kind=IC50 result="66.9 nM"
compound="CC[S+]([O-])c1nc(OC)ccc1[N+](=O)[O-] (stereo not drawn) [Example 31]" value_kind=IC50 result="131 nM"
compound="COc1ccc([N+](=O)[O-])c(S(=O)(=O)Cc2ccccc2)n1 [Example 1]" value_kind=IC50 result="18.2 nM"
compound="COc1ccc([N+](=O)[O-])c(S(=O)(=O)C(C)C)n1 [Example 11]" value_kind=IC50 result="204 nM"
compound="COc1ccc([N+](=O)[O-])c([S+]([O-])Cc2ccccc2)n1 (stereo not drawn) [Example 32]" value_kind=IC50 result="76.5 nM"
compound="CCCCCCCCS(=O)(=O)c1nc(OC)ccc1[N+](=O)[O-] [Example 12]" value_kind=IC50 result="12.3 nM"
compound="CCCCCCS(=O)(=O)c1nc(OC)ccc1[N+](=O)[O-] [Example 3]" value_kind=IC50 result="489 nM"

Q. Supply recorded IC50 for COc1ccc([N+](=O)[O-])c(S(=O)(=O)Cc2cccc(Cl)c2)n1 [Example 20] here.
A. 7.16 nM

* * *

Give pIC50 for every item shown.
- tested_on: recombinant thioredoxin reductase 1 (TrxR1) (Homo sapiens (Human), UniProt Q16881)
- assay_remarks: Inhibition of recombinant TrxR1 (DTNB assay)
- condition_label: 30 nM TrxR1, 250 μM NADPH, 15 minutes incubation, read-out: TrxR Assay IC50
Give bare numbers, as −log10 of the molar value.

substance_smiles=COc1ccc([N+](=O)[O-])c(S(=O)(=O)C2CCCC2)n1 measured_number=5.99
substance_smiles=O=[N+]([O-])c1ccc(Cl)nc1S(=O)(=O)Cc1ccccc1 measured_number=7.41
substance_smiles=COc1ccc(CS(=O)(=O)c2nc(OC)ccc2[N+](=O)[O-])cc1 measured_number=7.60
substance_smiles=COC(=O)CCS(=O)(=O)c1nc(OC)ccc1[N+](=O)[O-] measured_number=7.22

Could you now look at the following compound, please?
Q. Supply recorded pIC50 for COc1ccc([N+](=O)[O-])c(S(=O)(=O)Cc2ccc(Cl)cc2)n1 here.
A. 8.36
